Molecular target: recombinant soluble tissue factor and recombinant human factor VIIa (TF-VIIa) (Homo sapiens, UniProt P08709)
Construct: conversion of coagulation factor VII to VIIa by Xa; purchased American Diagnostica, Greenwich Conn; host or cells: VIIa purchased; soluble TF made in house in E. coli
Sequence (P08709 61-212 limits assumed): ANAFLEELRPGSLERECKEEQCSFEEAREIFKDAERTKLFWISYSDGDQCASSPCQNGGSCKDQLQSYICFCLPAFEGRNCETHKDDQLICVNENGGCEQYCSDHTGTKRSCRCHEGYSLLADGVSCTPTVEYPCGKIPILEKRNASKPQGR
Sequence (P08709 213-466 limits assumed): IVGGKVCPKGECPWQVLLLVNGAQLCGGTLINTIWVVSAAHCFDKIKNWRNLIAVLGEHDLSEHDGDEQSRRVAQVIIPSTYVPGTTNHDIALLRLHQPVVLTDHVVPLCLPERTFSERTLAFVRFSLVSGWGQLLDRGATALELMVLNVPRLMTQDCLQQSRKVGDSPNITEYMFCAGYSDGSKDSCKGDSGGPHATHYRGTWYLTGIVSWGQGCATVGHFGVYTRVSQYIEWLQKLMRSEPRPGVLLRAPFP
Sequence (P13726 33-251 partner limits assumed): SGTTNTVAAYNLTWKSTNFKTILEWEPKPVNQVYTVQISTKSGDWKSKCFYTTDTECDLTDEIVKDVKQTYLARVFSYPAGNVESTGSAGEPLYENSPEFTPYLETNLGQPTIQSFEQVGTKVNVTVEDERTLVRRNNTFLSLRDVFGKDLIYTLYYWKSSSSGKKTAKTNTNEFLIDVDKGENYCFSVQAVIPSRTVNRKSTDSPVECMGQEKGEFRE
Assay: TF-VIIa Assay
Assay type: biochemical
Conditions: 1 h; at 30 µM inhibitor
Entries are sorted into classes by inhibition at 30 µM as follows: low (below 7%), moderate (7% to below 20%), high (20% or more)

Here are 3 compounds together with their reported answers.
compound	assigned_category
Nc1cccc(-c2c(Cl)nc(NC3CCC3)c(=O)n2CC(=O)NCc2ccc(-c3n[nH]c(=O)[nH]3)cc2)c1 [Example 153]	moderate
Nc1ccc(CNC(=O)Cn2c(-c3cccc(N)c3)c(Cl)nc(NC3CCC3)c2=O)cc1 [Example 158]	moderate
CC(C)Nc1nc(Cl)c(-c2cccc(N)c2)n(CC(=O)NCc2ccc(C(N)=S)cc2)c1=O [Example 156]	high

-- ask Dear colleague, I would appreciate it if you could identify the bin for N=C(N)c1ccc(NC(=O)Cn2c(-c3cccc(N)c3)c(Cl)nc(NC3CCC3)c2=O)cc1 [Example 141] and reply at your convenience.
-- reply low

-- ask Hey, which category is COCC/N=C(\NCCOC)c1ccc(CNC(=O)Cn2c(-c3cccc(N)c3)c(Cl)nc(NC3CCC3)c2=O)cc1 [Example 164] in, do you know?
-- reply high

-- ask Bin this entry: Nc1cccc(-c2c(Cl)nc(NC3CCC3)c(=O)n2CC(=O)NCc2ccc3ccnc(N)c3c2)c1 [Example 147]
-- reply low

-- ask Hello team, could you let me know which band the following compound falls into: Nc1cccc(-c2c(Cl)nc(NC3CCC3)c(=O)n2CC(=O)NCc2ccc(-c3noc(=O)[nH]3)cc2)c1 [Example 152]
-- reply high

-- ask Where would C/N=C(/NC)c1ccc(CNC(=O)Cn2c(-c3cccc(N)c3)c(Cl)nc(NC3CCC3)c2=O)cc1 [Example 162] land among the classes by reported inhibition at 30 µM?
-- reply high

-- ask Lab log: CC(C)Nc1nc(Cl)c(-c2cccc(N)c2)n(CC(=O)Nc2ccc(S(=O)(=O)NC(=N)N)cc2)c1=O [Example 155] — assign inhibition at 30 µM category
-- reply low

-- ask Assign a bin to N=C(N)c1ccc(Cc2cccc(-n3c(-c4cccc(N)c4)c(Cl)nc(NC4CCC4)c3=O)c2)cc1 [Example 138]
-- reply moderate

---

Target: Human factor Xa (Homo sapiens)
Experiment: Xa Assay
Format: biochemical
Parameters: purchased Enzyme Research Laboratories, South Bend Ind
Details: inhibitor at 100 µM
# % Inhibition Factor Xa (100 µM) listing for each entry below

compound	% Inhibition Factor Xa (100 µM)
COc1ccc(-c2c(Cl)nc(NCCc3cccc(Cl)c3)c(=O)n2CC(=O)NCCc2ccncc2)cc1 [Example E-0035]	0%
O=C(Cn1c(-c2ccc3c(c2)OCO3)c(Cl)nc(NCc2ccncc2)c1=O)NCCc1ccncc1	0%
Cc1c(Cl)nc(NCCN2CCOCC2)c(=O)n1CC(=O)NCCc1ccncc1	0%
COc1ccc(-c2c(Cl)nc(NCCc3ccccc3)c(=O)n2CC(=O)NCCc2ccncc2)cc1 [Example E-0100]	6%

-- ask Data request, read-out % Inhibition Factor Xa (100 µM), for `O=C(Cn1c(-c2ccc3c(c2)OCO3)c(Cl)nc(NCCc2ccncc2)c1=O)NCCc1ccncc1`
-- reply 0%

-- ask Fill in the blank: the reported % Inhibition Factor Xa (100 µM) of `O=C(Cn1c(CCc2ccccc2)c(Cl)nc(NCCc2cccnc2)c1=O)NCCc1ccncc1` is ____.
-- reply 0%

-- ask For O=C(Cn1c(-c2ccc(Cl)cc2)c(Cl)nc(NCCN2CCOCC2)c1=O)NCCc1ccncc1 [Example E-0031] , what is its reported % Inhibition Factor Xa (100 µM)?
-- reply 0%

---

Biological target: UniProtKB P00742
Assay: Xa Assay
Assay type: biochemical
Set-up: purchased Enzyme Research Laboratories, South Bend Ind
# % Inhibition Factor Xa (100 µM) per entry
Supply the numeric figure in %, leaving out any unit text.

molecule	value_units	% Inhibition Factor Xa (100 µM)
O=C(Cn1c(-c2ccc(-c3ccccc3)cc2)c(Cl)nc(NCCc2cccnc2)c1=O)NCCc1ccncc1 [Example E-0053]	%	0
O=C(Cn1c(-c2ccc(-c3ccccc3)cc2)c(Cl)nc(NCCN2CCOCC2)c1=O)NCCc1ccncc1 [Example E-0055]	%	0
O=C(Cn1c(-c2ccc(-c3ccccc3)cc2)c(Cl)nc(NCCc2cccc(Cl)c2)c1=O)NCCc1cccnc1 [Example E-0116]	%	4

-- ask So what's the measured % Inhibition Factor Xa (100 µM) for this one? O=C(Cn1c(-c2ccc(-c3ccccc3)cc2)c(Cl)nc(NCc2ccccc2)c1=O)NCCc1ccncc1 [Example E-0109]
-- reply 3

---

Measured % Inhibition Factor Xa (30 µM) values are reported for all entries that follow.
Biological target: UniProtKB P00742
Assay: Xa Assay
Type: biochemical
Set-up: purchased Enzyme Research Laboratories, South Bend Ind
Conditions: at 30 µM
Numbers only here, please. The scale is %.

-- ask Fill in: % Inhibition Factor Xa (30 µM) of `C[C@H](C(=O)NCc1ccc(C(=N)N)cc1)n1c(-c2ccccc2)c(Cl)nc(NCCc2cccc(Cl)c2)c1=O` is ___
-- reply 0

-- ask Please report the recorded % Inhibition Factor Xa (30 µM) for `CNc1nc(Cl)c(-c2cccc(N)c2)n(CC(=O)NCc2ccc(C(=N)N)cc2)c1=O` .
-- reply 14

-- ask Given the entry `C[C@H](C(=O)NCc1ccc(C(=N)N)cc1)n1c(-c2ccccc2)c(Cl)nc(NCCc2ccccc2)c1=O` , report its measured % Inhibition Factor Xa (30 µM).
-- reply 0

-- ask Returns the measured % Inhibition Factor Xa (30 µM) for the input molecule. Input: `N=C(N)c1ccc(CNC(=O)Cn2c(-c3c(Cl)cccc3Cl)c(Cl)nc(NCCc3ccccc3)c2=O)cc1`
-- reply 0

---

Listed below: % Inhibition Factor Xa (100 µM) values for each entry.
Biological target: Human factor Xa (Homo sapiens, UniProt P00742)
Sequence (P00742 41-179 limits assumed): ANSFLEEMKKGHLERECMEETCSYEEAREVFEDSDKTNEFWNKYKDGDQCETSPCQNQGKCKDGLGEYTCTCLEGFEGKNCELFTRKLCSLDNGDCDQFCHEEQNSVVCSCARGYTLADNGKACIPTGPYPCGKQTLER
Sequence (P00742 235-488 limits assumed): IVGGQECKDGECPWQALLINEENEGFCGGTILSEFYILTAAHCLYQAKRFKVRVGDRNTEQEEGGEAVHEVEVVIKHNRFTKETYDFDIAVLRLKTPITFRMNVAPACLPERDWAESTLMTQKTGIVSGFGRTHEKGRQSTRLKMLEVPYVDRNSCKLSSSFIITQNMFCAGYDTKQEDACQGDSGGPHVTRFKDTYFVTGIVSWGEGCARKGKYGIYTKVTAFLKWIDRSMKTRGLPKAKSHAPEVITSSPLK
Assay: Xa Assay
Format: biochemical
Set-up: purchased Enzyme Research Laboratories, South Bend Ind
Settings: inhibitor at 100 µM
Numeric only. Scale: %

// below: answered molecules
molecule	target_of_assay	% Inhibition Factor Xa (100 µM), %
O=C(Cn1c(-c2ccc(Cl)cc2)c(Cl)nc(NCCc2ccncc2)c1=O)NCCc1ccncc1 [Example E-0030]	Human factor Xa (Homo sapiens, UniProt P00742)	0
O=C(Cn1c(-c2ccccc2)c(Cl)nc(NCCc2cccc(Cl)c2)c1=O)NCCc1ccncc1	Human factor Xa (Homo sapiens, UniProt P00742)	0

Now look at this entry.
-- ask Any idea what % Inhibition Factor Xa (100 µM) was measured for `Cc1c(Cl)nc(NCCc2ccncc2)c(=O)n1CC(=O)NCCc1ccncc1` ?
-- reply 0

---

Target: recombinant soluble tissue factor and recombinant human factor VIIa (TF-VIIa) (Homo sapiens, UniProt P08709)
Construct: conversion of coagulation factor VII to VIIa by Xa; purchased American Diagnostica, Greenwich Conn; host or cells: VIIa purchased; soluble TF made in house in E. coli
Assay: TF-VIIa Assay
Format: biochemical
Conditions: read-out: IC50 TF-VIIa
endpoint_label: IC50 (nM)
Give the quantity in nM, number only.

CC(C)Nc1nc(Cl)c(-c2cc(N)cc(C(=O)NC(C)(C)c3ccccc3)c2)n(CC(=O)NCc2ccc(C(=N)N)cc2)c1=O 10.7
CC(C)Nc1nc(Cl)c(-c2cc(N)cc(C(=O)N(C)Cc3ccccc3)c2)n(CC(=O)NCc2ccc(C(=N)N)cc2)c1=O 25.6
N=C(N)c1ccc(CNC(=O)Cn2c(-c3ccccc3N)cnc(NC3CCC3)c2=O)cc1 1200
CC(C)Nc1nc(Cl)c(-c2cc(N)cc(C(=O)NCc3ccc(C(C)(C)C)cc3)c2)n(CC(=O)NCc2ccc(C(=N)N)cc2)c1=O 242
N=C(N)c1ccc(CCC(=O)Cn2c(-c3cccc(N)c3)c(Cl)nc(NC3CCC3)c2=O)cc1 200

Please look at the following compound next.
-- ask If you can, please state the reported IC50 value of `CC(C)Nc1nc(Cl)c(-c2cc(N)cc(C(=O)NC3CCCCCC3)c2)n(CC(=O)NCc2ccc(C(=N)N)cc2)c1=O` .
-- reply 10.9

---

Target: UniProt:P00742
Experiment: Xa Assay
Format: biochemical
Set-up: purchased Enzyme Research Laboratories, South Bend Ind
Conditions: at 30 µM inhibitor
Each entry below lists one item and its recorded % Inhibition Factor Xa (30 µM) value.
Please respond with the number in % and leave the unit unwritten.

Some entries whose results are on file:
compound	endpoint_label	value_units	quantitative_readout
CC(C)Nc1nc(Cl)c(-c2cc(N)ccc2SCC(=O)O)n(CC(=O)NCc2ccc(C(=N)N)cc2)c1=O [Example 110]	% Inhibition Factor Xa (30 µM)	%	15
CC(C)Nc1nc(Cl)c(-c2ccc(Cl)nc2)n(CC(=O)NCc2ccc(C(=N)N)cc2F)c1=O [Example 74]	% Inhibition Factor Xa (30 µM)	%	13
N=C(N)c1ccc(CNC(=O)Cn2c(-c3ccccc3)c(Cl)nc(NCc3ccccc3)c2=O)cc1 [1471-9]	% Inhibition Factor Xa (30 µM)	%	29
Cc1c(Cl)nc(NCCN2CCOCC2)c(=O)n1CC(=O)NCc1ccc(C(=N)N)cc1 [1471-4]	% Inhibition Factor Xa (30 µM)	%	0
COCC/N=C(\NCCOC)c1ccc(CNC(=O)Cn2c(-c3cccc(N)c3)c(Cl)nc(NC3CCC3)c2=O)cc1 [Example 164]	% Inhibition Factor Xa (30 µM)	%	2

Consider the additional compound presented here.
-- ask # query: % Inhibition Factor Xa (30 µM) of entry CC(C)Nc1nc(Cl)c(-c2cccc(N)c2)n(CC(=O)NCC2CCC(C(=N)N)C=N2)c1=O (stereo not shown) [Example 150]
-- reply 4

All values here come from patent US6908919B2.
